molecular target: Bile acid receptor (Homo sapiens); assay: Agonist activity at human full length FXR transfected in HEK293 cells coexpressing pTRexDest/pGL2promotor assessed as luciferase activity by direct reporter cellular assay relative to GW-4064; assay type: functional, cell-based
Sequence (Q96RI1 whole entry): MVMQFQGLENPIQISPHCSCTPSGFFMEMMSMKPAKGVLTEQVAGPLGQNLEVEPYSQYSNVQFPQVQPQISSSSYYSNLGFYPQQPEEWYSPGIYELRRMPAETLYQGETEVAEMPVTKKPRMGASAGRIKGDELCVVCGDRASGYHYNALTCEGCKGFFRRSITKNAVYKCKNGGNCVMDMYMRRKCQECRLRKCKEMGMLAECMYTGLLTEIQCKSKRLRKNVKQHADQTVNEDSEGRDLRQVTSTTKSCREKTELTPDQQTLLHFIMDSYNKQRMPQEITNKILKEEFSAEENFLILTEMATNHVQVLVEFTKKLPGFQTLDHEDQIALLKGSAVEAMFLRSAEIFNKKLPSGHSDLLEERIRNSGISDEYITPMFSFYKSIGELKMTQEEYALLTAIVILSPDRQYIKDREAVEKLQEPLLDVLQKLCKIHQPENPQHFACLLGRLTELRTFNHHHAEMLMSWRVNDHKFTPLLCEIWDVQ
Note to self: values exactly at 50% are YES. So Efficacy at or above 50% is YES, below is NO.

Solved cases (2 shown):
INSERT INTO results (structure, category) VALUES
  ('CC(C)c1onc(-c2c(Cl)cccc2Cl)c1COc1ccc(N(C)Cc2ccc(OCC(=O)O)cc2)c(C(F)(F)F)n1', 'YES'),
  ('CC(C)c1onc(-c2c(Cl)cccc2Cl)c1COc1ccc(NCc2ccc(C(=O)O)cc2)c(C(F)(F)F)n1', 'NO');

Quick check, Efficacy >= 50%? "CC(C)c1onc(-c2c(Cl)cccc2Cl)c1COc1ccc(N(C)Cc2ccc(OCCO)cc2)c(C(F)(F)F)n1"
YES

Quick check, Efficacy >= 50%? "CC(C)c1onc(-c2c(Cl)cccc2Cl)c1COc1ccc(N(C)Cc2cccc(C(=O)NCCOP(=O)(O)O)c2)c(C(F)(F)F)n1"
YES

Quick check, Efficacy >= 50%? "CC(C)c1onc(-c2c(Cl)cccc2Cl)c1COc1ccc(N(C)Cc2ccc(C(=O)NS(C)(=O)=O)cc2)c(C(F)(F)F)n1"
YES

Quick check, Efficacy >= 50%? "CN(Cc1cccc(C(=O)O)c1)c1ccc(OCc2c(-c3c(Cl)cccc3Cl)noc2C2CC2)nc1C(F)(F)F"
NO

* * *

molecular target: Bile acid receptor (Homo sapiens); assay: Agonist activity at human full length FXR transfected in HEK293 cells coexpressing pTRexDest/pGL2promotor assessed as luciferase activity by direct reporter cellular assay; type: functional, cell-based; settings: read-out: EC50
endpoint_label: EC50 (nM)
Reply numerically in nM, unit not repeated.

Record excerpt, results attached:
INSERT INTO results (compound, reading_unit, readout_number) VALUES
  ('CC(Oc1ccc(C(=O)O)cc1)c1ccc(OCc2c(-c3c(Cl)cccc3Cl)noc2C2CC2)nc1C(F)(F)F (centres undefined)', 'nM', 611),
  ('CC(C)c1onc(-c2c(Cl)cccc2Cl)c1COc1ccc(N(C)Cc2cccc(C(=O)NCCOP(=O)(O)O)c2)c(C(F)(F)F)n1', 'nM', 216),
  ('CC(C)c1onc(-c2c(Cl)cccc2Cl)c1COc1ccc(N(C)C(=O)c2ccc(C(=O)O)cc2)c(C(F)(F)F)n1', 'nM', 208);

Entry "O=C(O)c1ccccc1OCc1ccc(OCc2c(-c3c(Cl)cccc3Cl)noc2C2CC2)nc1C(F)(F)F" has what EC50?
611

* * *

target: Bile acid receptor (Homo sapiens); test: Agonist activity at human full length FXR transfected in HEK293 cells coexpressing pTRexDest/pGL2promotor assessed as luciferase activity by direct reporter cellular assay; assay type: functional, cell-based; details: read-out: EC50
# pEC50 annotations
In textbook form, pEC50 equals minus log to base ten of the concentration in mol/L.

Record excerpt, results attached:
INSERT INTO results (compound, endpoint_label, readout_number) VALUES
  ('CN(Cc1ccc(C(=O)NCCS(=O)(=O)O)cc1)c1ccc(OCc2c(-c3c(Cl)cccc3Cl)noc2C2CC2)nc1C(F)(F)F', 'pEC50', 6.03),
  ('CC(C)c1onc(-c2c(Cl)cccc2Cl)c1COc1ccc(N(C)Cc2cccc(C(=O)O)c2)c(C(F)(F)F)n1', 'pEC50', 8.22),
  ('CC(C)c1onc(-c2c(Cl)cccc2Cl)c1COc1ccc(N(C)Cc2cccc(C(=O)NS(C)(=O)=O)c2)c(C(F)(F)F)n1', 'pEC50', 7.70),
  ('CC(c1ccc(OCc2c(-c3c(Cl)cccc3Cl)noc2C2CC2)nc1C(F)(F)F)N(C)c1ccc(C(=O)O)cc1 (configuration not stated)', 'pEC50', 6.74);

Query the reported pEC50 for Bile acid receptor (Homo sapiens); item: CC(Nc1ccc(C(=O)O)cc1)c1ccc(OCc2c(-c3c(Cl)cccc3Cl)noc2C2CC2)nc1C(F)(F)F (configuration not stated)
6.69

Query the reported pEC50 for Bile acid receptor (Homo sapiens); item: "CCN(Cc1ccc(C(=O)O)cc1)c1ccc(OCc2c(-c3c(Cl)cccc3Cl)noc2C2CC2)nc1C(F)(F)F"
6.95

Query the reported pEC50 for Bile acid receptor (Homo sapiens); item: CC(Oc1cccc(C(=O)O)c1)c1ccc(OCc2c(-c3c(Cl)cccc3Cl)noc2C2CC2)nc1C(F)(F)F (configuration not stated)
7.24

* * *

test system: Mus musculus; test: Volume of distribution in db/db mouse at 1 mg/kg, iv; format: ADME, organism-based; set-up: dose 1 mg/kg, route intravenous; conditions: in vivo
# Vd annotations

Query the reported Vd for Mus musculus; item: "CC(C)c1onc(-c2c(Cl)cccc2Cl)c1COc1ccc(N(C)Cc2ccc(C(=O)O)cc2)c(C(F)(F)F)n1"
0.931 L/kg

Query the reported Vd for Mus musculus; item: "CN(Cc1ccc(C(=O)O)cc1)c1ccc(OCc2c(-c3c(Cl)cccc3Cl)noc2C2CC2)nc1C(F)(F)F"
1.24 L/kg

Query the reported Vd for Mus musculus; item: "CN(Cc1ccc(C(=O)NCCS(=O)(=O)O)cc1)c1ccc(OCc2c(-c3c(Cl)cccc3Cl)noc2C2CC2)nc1C(F)(F)F"
31.7 L/kg

* * *

target: Oxysterols receptor LXR-beta (Homo sapiens, UniProt P55055); assay: Agonist activity at LXRbeta-LBD expressed in HEK293 cells assessed as Gal4-DBD interaction by cellular mammalian one hybrid assay
Sequence (P55055 whole entry, the tested form may be a part): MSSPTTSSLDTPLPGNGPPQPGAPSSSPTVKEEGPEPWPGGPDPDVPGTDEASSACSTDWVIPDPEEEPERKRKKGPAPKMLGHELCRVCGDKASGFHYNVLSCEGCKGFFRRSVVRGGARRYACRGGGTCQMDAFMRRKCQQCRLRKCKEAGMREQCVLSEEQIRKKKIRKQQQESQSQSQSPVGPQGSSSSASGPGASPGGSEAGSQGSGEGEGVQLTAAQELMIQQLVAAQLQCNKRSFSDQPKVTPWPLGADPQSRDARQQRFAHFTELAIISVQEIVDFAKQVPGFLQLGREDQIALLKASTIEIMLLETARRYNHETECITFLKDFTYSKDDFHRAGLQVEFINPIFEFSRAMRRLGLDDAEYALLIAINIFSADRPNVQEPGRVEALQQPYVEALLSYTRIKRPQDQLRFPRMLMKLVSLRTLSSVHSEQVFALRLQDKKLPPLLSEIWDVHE
pEC50: −log10 of the molar value.
endpoint_label: pEC50

INSERT INTO assay_data (structure, measurement_target, endpoint_label, result) VALUES
  ('CN(Cc1ccc(C(=O)O)cc1)c1ccc(OCc2c(-c3c(Cl)cccc3Cl)noc2C2CC2)nc1C(F)(F)F', 'Oxysterols receptor LXR-beta (Homo sapiens, UniProt P55055)', 'pEC50', '< 5.00'),
  ('CN(Cc1cccc(C(=O)O)c1)c1ccc(OCc2c(-c3c(Cl)cccc3Cl)noc2C2CC2)nc1C(F)(F)F', 'Oxysterols receptor LXR-beta (Homo sapiens, UniProt P55055)', 'pEC50', '< 5.00');

Entry "CC(C)c1onc(-c2c(Cl)cccc2Cl)c1COc1ccc(N(C)Cc2ccc(C(=O)O)cc2)c(C(F)(F)F)n1" has what pEC50?
< 5.00

* * *

# concentration at 10 min annotations
assay: Plasma concentration in db/db mouse at 1 mg/kg, iv after 10 mins; assay type: ADME, organism-based; parameters: dose 1 mg/kg, route intravenous; details: read-out: Drug uptake
Reply numerically in ng/mL, unit not repeated.

Record excerpt, results attached:
INSERT INTO results (structure, endpoint_label, reading_unit, readout_number) VALUES
  ('CN(Cc1ccc(C(=O)O)cc1)c1ccc(OCc2c(-c3c(Cl)cccc3Cl)noc2C2CC2)nc1C(F)(F)F', 'concentration at 10 min', 'ng/mL', 437),
  ('CC(C)c1onc(-c2c(Cl)cccc2Cl)c1COc1ccc(N(C)Cc2ccc(C(=O)O)cc2)c(C(F)(F)F)n1', 'concentration at 10 min', 'ng/mL', 1600);

// next item, concentration at 10 min requested
Entry "CN(Cc1ccc(C(=O)NCCS(=O)(=O)O)cc1)c1ccc(OCc2c(-c3c(Cl)cccc3Cl)noc2C2CC2)nc1C(F)(F)F" has what concentration at 10 min?
59

* * *

test: Drug level in db/db mouse liver at 25 mg/kg bid after 24 hrs by LC/MS-MS analysis; format: ADME, organism-based; design: dose 25 mg/kg; conditions: read-out: Drug uptake
endpoint_label: concentration at 24 h

Entry "CC[C@H]1[C@@H](O)[C@@H]2[C@H](CC[C@]3(C)[C@@H]([C@H](C)CCC(=O)O)CC[C@@H]23)[C@@]2(C)CC[C@@H](O)C[C@@H]12" has what concentration at 24 h?
16.6 µM

* * *

# Efficacy annotations
target: UniProtKB Q96RI1; assay: Agonist activity at human full length FXR transfected in HEK293 cells coexpressing pTRexDest/pGL2promotor assessed as luciferase activity by direct reporter cellular assay relative to GW-4064; format: functional, cell-based
Reply numerically in %, unit not repeated.

INSERT INTO assay_data (molecule, reading_unit, readout_number) VALUES
  ('CC(Oc1ccc(C(=O)O)cc1)c1ccc(OCc2c(-c3c(Cl)cccc3Cl)noc2C2CC2)nc1C(F)(F)F (centres undefined)', '%', 33);

Entry "CC(C)c1onc(-c2c(Cl)cccc2Cl)c1COc1ccc(/C=C/c2cccc(C(=O)O)c2)c(Cl)c1" has what Efficacy?
100

Entry "CCN(Cc1ccc(C(=O)O)cc1)c1ccc(OCc2c(-c3c(Cl)cccc3Cl)noc2C2CC2)nc1C(F)(F)F" has what Efficacy?
43

Entry CC(Oc1cccc(C(=O)O)c1)c1ccc(OCc2c(-c3c(Cl)cccc3Cl)noc2C2CC2)nc1C(F)(F)F (centres undefined) has what Efficacy?
49

Entry "O=C(O)c1cccc(OCc2ccc(OCc3c(-c4c(Cl)cccc4Cl)noc3C3CC3)nc2C(F)(F)F)c1" has what Efficacy?
41

Entry CC(c1ccc(OCc2c(-c3c(Cl)cccc3Cl)noc2C2CC2)nc1C(F)(F)F)N(C)c1ccc(C(=O)O)cc1 (centres undefined) has what Efficacy?
57

Entry "CC(C)c1onc(-c2c(Cl)cccc2Cl)c1COc1ccc(N(C)Cc2cccc(C(=O)O)c2)c(C(F)(F)F)n1" has what Efficacy?
58

Entry "CN(Cc1ccc(C(=O)NCCS(=O)(=O)O)cc1)c1ccc(OCc2c(-c3c(Cl)cccc3Cl)noc2C2CC2)nc1C(F)(F)F" has what Efficacy?
49

Entry "Cc1cc(OCc2c(-c3c(Cl)cccc3Cl)noc2C(C)C)ncc1[N+](=O)[O-]" has what Efficacy?
76
